system: MCF7 (breast) carcinoma cell line; assay: Anti-tumor properties, MTT; assay type: cell-based; details: Homo sapiens; MCF7, 100 μM, 72 h; read-out: Percentage growth of tumor cell lines treated with the tested compounds (±SD)
Let's look at some compounds and their measured activity at 100 µM.

{"Compound Structure": "COc1cc(/C=C/C(=O)CC(=O)/C=C/c2ccc(OC(=O)[C@H](C)NC(=O)OCc3ccccc3)c(OC)c2)ccc1OC(=O)[C@H](C)NC(=O)OCc1ccccc1", "activity at 100 µM (%)": 70}
{"Compound Structure": "COc1cc(/C=C/C(=O)CC(=O)/C=C/c2ccc(OC(=O)CNC(=O)OCc3ccccc3)c(OC)c2)ccc1OC(=O)CNC(=O)OCc1ccccc1", "activity at 100 µM (%)": 60}
{"Compound Structure": "COc1cc(/C=C/C(=O)CC(=O)/C=C/c2ccc(OC(=O)[C@H](Cc3ccccc3)NC(=O)OCC3c4ccccc4-c4ccccc43)c(OC)c2)ccc1OC(=O)[C@H](Cc1ccccc1)NC(=O)OCC1c2ccccc2-c2ccccc21", "activity at 100 µM (%)": 84.7}
{"Compound Structure": "COc1cc(/C=C/C(=O)CC(=O)/C=C/c2ccc(OC(=O)[C@@H](NC(=O)OCc3ccccc3)C(C)C)c(OC)c2)ccc1OC(=O)[C@@H](NC(=O)OCc1ccccc1)C(C)C", "activity at 100 µM (%)": 85}
{"Compound Structure": "COc1cc(/C=C/C(=O)CC(=O)/C=C/c2ccc(OC(=O)[C@H](CCSC)NC(=O)OCC3c4ccccc4-c4ccccc43)c(OC)c2)ccc1OC(=O)[C@H](CCSC)NC(=O)OCC1c2ccccc2-c2ccccc21", "activity at 100 µM (%)": 88.9}
